// provenance: paper PMC6823378

Target: T1, myosin VI^998–1131 of the long isoform (myosin VI_(long)), cleaved from GST and purified (human, UniProt Q9UM54 998-1131)
T1 chain: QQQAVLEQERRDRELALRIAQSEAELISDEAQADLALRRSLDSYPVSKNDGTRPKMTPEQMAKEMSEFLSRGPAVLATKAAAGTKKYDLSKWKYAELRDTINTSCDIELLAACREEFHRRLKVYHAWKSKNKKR
Experiment: FP
Ends that are not written are not given here.
So I've got a bunch of binders here, and I need their pKd values.
A value of pKd is the negative decimal logarithm of a concentration given in moles per litre.

Req: Recorded pKd for AFAILDGGAPGPQPHG (also: 5-FAM conjugated, site not given here) [5-carboxyfluorescein (5-FAM)-conjugated CLCa peptide 51–66] , please?
Resp: 4.88

Req: Recorded pKd for AFAILDGGAPG (also: 5-FAM conjugated, site not given here) [5-carboxyfluorescein (5-FAM)-conjugated CLCa peptide 51–61] , please?
Resp: 4.65
